Source listed as ChEMBL document CHEMBL3988442.

target: Sialic acid-binding Ig-like lectin 9 (Homo sapiens); assay: Hs-Siglec9 ALPHAscreen SOP 20170721; parameters: scale not given: direction of the effect not stated beside the values; settings: 10 µM
So I've got a bunch of molecules here, and I need their Percent Effect values.
The response must be a number in % with no trailing unit.

The value of Percent Effect measured for the molecule CCN(C1CCS(=O)(=O)C1)S(=O)(=O)c1cccc2cc(C)cnc12 (configuration not stated) turned out to be -4.93

# molecule CCn1nc(C)c2nnn(CC(=O)Nc3cccc(Cl)c3)c(=O)c21 ; its Percent Effect = 3.3

For record O=c1[nH]c2c(c(=O)n1C1CCCCC1)CCC2Nc1ccccc1 (configuration not stated) the listed Percent Effect is -0.297

Percent Effect in this record for CCC1CN(CC(=O)Nc2sccc2C#N)CCO1 (configuration not stated) : 2.86

The value of Percent Effect measured for the molecule CCc1ncc2c(n1)CN(Cc1nc(-c3ccsc3)oc1C)CC2 turned out to be 12.2

// Percent Effect value for CC(Oc1ccccc1C(F)(F)F)C(=O)NCCC(=O)N(C)C (configuration not stated) : 6.01

Reported Percent Effect for COc1ccc2c(ccn2CCC(=O)O)c1 was -8.49

Percent Effect for Cn1cnc(S(=O)(=O)N2CCN(Cc3ccco3)CC2)c1Cl is 4.71

The molecule listed as c1cnn(CC2CN(CCc3ccncc3)CCO2)c1 (configuration not stated) has a reported Percent Effect of -13.5

Percent Effect for CC(=O)N1CCOCC2(CN(Cc3ccc(C)o3)CCO2)C1 (configuration not stated) is -4.1

get_value(item= C=C(C)CN(Cc1cccc(O)c1)C1CCC(O)CC1 (configuration not stated) , readout=Percent Effect) returns 6.05

The recorded Percent Effect for entry CNC(=O)c1cnc(/C=C/c2cc(OC)c(OC)c(OC)c2)s1 equals 8.07

Item: O=C(NCCCOCC1CC1)Nc1cccnc1N1CCOCC1 | Percent Effect: 0.4

# molecule CC(=O)N1CCC(Oc2ccc(C#N)cn2)CC1 ; its Percent Effect = 12.9

// Percent Effect value for Cc1noc(C)c1-c1cccc(CC2CCN(C(=O)c3cc[nH]n3)C2)n1 (configuration not stated) : 7.09

The reported value for Cc1ccccc1CN1CCC2(COCc3cnc(N(C)C)nc32)C1 (configuration not stated) in terms of Percent Effect is 15.2

The value of Percent Effect measured for the molecule Cc1nc(C)n(C2CCCN(C(=O)c3cc4ccccc4n3C)C2)n1 (configuration not stated) turned out to be 1.64

Form field Percent Effect, entry OCCN1CCOC2(CCCN(c3cccc(F)c3)C2)C1 (configuration not stated) : -3.82

Data point: COc1ccc(-n2ccc(C(=O)NCCN3CCCCC3C)n2)cc1 (configuration not stated) ; Percent Effect = 18.1

The recorded Percent Effect for entry CN(CCCc1cnn(C)c1)C(=O)C1COc2ccccc2C1 (configuration not stated) equals -1.88

Consider CCO[C@@H]1CCN(C(=O)c2ccc[nH]2)[C@@H]1Cc1cnn(C)c1 . Its measured Percent Effect is -3.48

Reported Percent Effect for Cc1ccc(CN2C[C@@H]3COC[C@@H](NS(C)(=O)=O)[C@@H]3C2)o1 was -2.48

Entry under test: Cc1ccc(C)c(OC2CCN(C(=O)c3ccc(C)[nH]c3=O)CC2)c1 . Its Percent Effect was 6.14

Item: CCN(CC)Cc1ccc(C(=O)N2CCN(CC(C)O)CC2)cc1 (configuration not stated) | Percent Effect: 8.13

Reported Percent Effect of Cc1nc(CCNC(=O)C2CC(=O)N(C(C)(C)C)C2)sc1C (configuration not stated) : 5.84

GET /value?item= CC(C(=O)N1CCN(c2ccccc2Cl)CC1)n1cncn1 (configuration not stated) &field=Percent Effect returns 2.76

Short answer for CCN1CCN(c2nc(C(C)C)nc3c(C)nn(CC)c23)CC1 : Percent Effect was 5.36

Form field Percent Effect, entry CC(NC(=O)NCCCn1ccnc1)c1ccc2c(c1)CCC(=O)N2 (configuration not stated) : -8

Looking up CC(C)c1n[nH]c(C2CN(Cc3nnc(C4CC4)o3)CCO2)n1 (configuration not stated) , I found its Percent Effect recorded as -2.59

What the record says about CCCC(C)CN1CCC(n2cc(CCCO)nn2)CC1 (configuration not stated) : Percent Effect is 0.0396

Lookup result for Cc1ncsc1-c1nnc(C2CCN(Cc3ccc(F)cc3)CC2)o1 ; measured Percent Effect: -0.16

Value of Percent Effect reported for the molecule CC(C(=O)N1CCC(Nc2cccnn2)CC1)n1ccnc1 (configuration not stated) is 14.9

GET /value?item= O=C(NCCS(=O)(=O)N1CCc2ccccc21)c1c(O)cc(F)cc1F &field=Percent Effect returns -10.7

Reported Percent Effect for CC(C)c1nc(CN(C)C2CCN(CC(F)(F)F)C2)no1 (configuration not stated) was -4.08

Recorded result, CNC(=O)CCCNCc1c(C(C)C)nn(C)c1N(C)C , Percent Effect: -8.3

Short answer for Cc1nc(C)c2c(n1)CCN(C(=O)CC1CC1)CC2 : Percent Effect was -10.8

Percent Effect recorded for this molecule, O=C(CNCCn1cccn1)NCC1(c2ccccc2)CC1 , is 8.53

Percent Effect measured on Cc1nc(C)n(C2CCCN(C(=O)COCc3ccccc3)C2)n1 (configuration not stated) = 9.37

Per the records, this molecule ( Cc1ccc(CN2CC[C@H]3OCC[C@@H](C(=O)NC4CC4)[C@@H]3C2)o1 ) has Percent Effect equal to -9.85

Field Percent Effect (entry COC1CCN(C(=O)CCc2c(C)nc3ccnn3c2C)CC1 ) reads -0.445

Record CC(C(=O)N1CCCN(Cc2ccc(C#N)cc2)CC1)n1ccnc1 (configuration not stated) , field Percent Effect: -5.95

For this molecule ( Cn1ncc2c(=O)[nH]c(N3CCN(C(=O)c4ccsc4)CC3)nc21 ), measured Percent Effect is -0.0131

Looking up Cn1ccc(C(=O)N2CCC[C@]3(C[C@@H](OCc4ccccn4)CO3)C2)n1 , I found its Percent Effect recorded as -1.64

Measured Percent Effect of CN(CCCOc1ccc(F)cc1)Cc1nc2c(cnn2C)c(=O)[nH]1 : -3.57

Query c1ccc(-c2ccc3nc(C4CCN(CC5CC5)CC4)nn3c2)cc1 yields Percent Effect of 4.55

Value of measured Percent Effect for the entry Cc1cnn(CC(C)NCc2nc(-c3ccco3)no2)c1 (configuration not stated) : 40.6

For c1cnn(C2CN(Cc3nc(-c4ccsc4)no3)C2)c1 the molecule record lists Percent Effect as 2.96

----------
molecular target: AMP-activated protein kinase, AMPK (Homo sapiens) (UniProt P54646+O43741+P54619+Q9UGJ0+Q9Y478+Q13131+Q9UGI9); experiment: AMP-dependent Kinase enzyme assay. An in vitro enzyme assay that detects ADP turnover that is directly proportional to AMPK activity. This uses naive AMPK that is activated during the assay with MK-8722; format: functional; parameters: scale not given: direction of the effect not stated beside the values; conditions: 30 µM
Can you tell me Percent Effect for the items I'm about to list?
I only need the number, in %, no unit after it.

Entry CN(C)CCCNC(=O)CNC(=O)N1CCc2c([nH]c3ccccc23)C1 , Percent Effect reported as 20.1

Data point: CC(C)NC(=O)NCCCc1cc(N)n(-c2ccccc2)n1 ; Percent Effect = -7.43

For record O=C(N[C@@H]1CN(c2ncccn2)C[C@@H]2CCCO[C@@H]21)c1cnccn1 the listed Percent Effect is 1.89

Per the record, O=C(C1CCOCC1)N1CCO[C@H]2[C@@H](OCc3ccncc3)CC[C@@H]21 has Percent Effect of -5.41

Query CCc1n[nH]c(C2CN(C(=O)c3cnc[nH]3)CCO2)n1 (centres undefined) yields Percent Effect of 7.86

Per the records, this compound ( CC(=O)N1CCCC1c1nccnc1Nc1cccc(C)n1 (centres undefined) ) has Percent Effect equal to 11.9

What the record says about O=C(COc1cccc2c1CCC2=O)NCCOc1ccccc1 : Percent Effect is -0.945

Reported Percent Effect ( CC(C)(O)CN1CCN(C(=O)c2sccc2C2CC2)CC1 ) = 9.46

Percent Effect reading for CN(Cc1ccco1)Cc1ccccc1CNC(=O)c1cc[nH]n1 : -0.254

Sample COCc1cccc(CNCc2c(C)nn(C)c2N(C)C)c1 ; Percent Effect observed: -21.5

The compound Cc1ccn(-c2ccc(C(=O)N3CCCC(C(N)=O)C3)cc2)n1 (centres undefined) showed Percent Effect equal to -10.5

# Percent Effect of O=C(NCc1cccnc1)C1=NN(c2ccccc2)C(=O)CN1 = 8.77

Memo: CC(NC(=O)CNCCn1cccn1)c1ccc2c(c1)CCCC2 (centres undefined) , reported Percent Effect: -1.74

Record COCCn1ccc(NC(=O)Nc2cccnc2)n1 . Reported Percent Effect: 3.19

Form field Percent Effect, entry C=Cn1ncc(CN2C[C@@H]3CCCN3C[C@@H]2Cc2ccccc2)c1C : 3.48

compound c1nc(N2CCCCC2Cn2cncn2)c2ccsc2n1 (centres undefined) , Percent Effect observed: -6.98

Form: compound = CN(Cc1ncc(C(C)(C)C)o1)C1CCCN(c2cccnn2)C1 (centres undefined) ; Percent Effect = -7.54

So for CCN1CCOC(CNCc2ccccc2OCc2ccccn2)C1 (centres undefined) , the logged Percent Effect turned out to be -13

response.value for CSCC(=O)N1CCC2(CC1)c1ccccc1CC2O (centres undefined) (field: Percent Effect) = 10.7

Entry Cc1ccc(C(=O)N2CCC3(CC2)NC(=O)CC3c2ccccc2)cn1 (centres undefined) — recorded Percent Effect = 3.38

Value of measured Percent Effect for the entry COc1ccccc1NC(=O)NCC(O)(c1ccccc1)C1CC1 (centres undefined) : -22.1

Short answer for Cc1cccc(N2CCC(NC(=O)CCCc3cccs3)CC2)n1 : Percent Effect was 0.158

Reported Percent Effect of CCn1cc(CN2CCCN(C(=O)CCc3ccncc3)CC2)cn1 : -14.6

Quick note, Percent Effect for CC(C)c1nccn1-c1cccc(C2CCN(C)CC2)n1 landed at 4.91
